target: T1, human melanocortin 4 receptor (human, UniProt P32245 1-332)
T1 construct: whole, on cells; cAMP assay on whole BHK cells; also called MC4R; human MC4 receptor
T1 sequence (P32245 whole entry): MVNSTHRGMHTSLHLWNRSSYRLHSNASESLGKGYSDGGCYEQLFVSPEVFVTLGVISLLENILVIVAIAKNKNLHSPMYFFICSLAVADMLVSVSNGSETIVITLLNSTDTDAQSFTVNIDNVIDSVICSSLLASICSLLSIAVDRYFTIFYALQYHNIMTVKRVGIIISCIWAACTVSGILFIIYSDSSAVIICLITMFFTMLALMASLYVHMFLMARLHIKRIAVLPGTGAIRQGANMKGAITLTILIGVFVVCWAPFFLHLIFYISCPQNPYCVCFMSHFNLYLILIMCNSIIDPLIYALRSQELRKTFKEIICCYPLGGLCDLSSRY
assayNotes: competition with 125-NDP-α-MSH, BHK human MC4R membranes
Protocol: In order to assess the binding affinity of the selected compounds for the human MC4R competitive binding assays was performed with radiolabeled NDP-alpha MSH (¹²⁵NDP-α-MSH). […] The BHK cell membranes were prepared from frozen or fresh cells that were homogenized in 20 mM HEPES pH 7.1, 5 mM MgCl₂, 1 mg/ml bacitracin (buffer 1) and centrifuged at 15000 rpm at 4° C., 10 min in a Sorvall RC 5B plus, SS-34 rotor. […] The radioactivity retained on the filters was counted using a Packard Topcounter. […]
Positions of bridges follow the written chain, without caps; N, C: chain ends. Non-standard residues stand in square brackets, D forms with d. Cit = NC(=O)NCCC[C@H](N)C(=O)O
readoutKind: pKi
pKi is defined as minus the log10 of a concentration measured in mol/L.

Below, 2 binders whose answers are already recorded.
• CAHFXWCAHFXW (D-Phe 4, 10; N-MeArg 5, 11; disulphide Cys1-Cys7; head-to-tail amide Cys1-Trp12, also called c[c[Cys-Ala-His-D-Phe-N-MeArg-Trp-Cys]-Ala-His-D-Phe-N-MeArg-Trp]) [Chem. 37] = 8.48
• cyclo(CPH[dF]RWCPH[dF]RW) (disulfide 1-7; SMILES N=C(N)NCCC[C@@H]1NC(=O)[C@@H](Cc2ccccc2)NC(=O)[C@H](Cc2c[nH]cn2)NC(=O)[C@@H]2CCCN2C(=O)[C@@H]2CSSC[C@H](NC(=O)[C@H](Cc3c[nH]c4ccccc34)NC1=O)C(=O)N1CCC[C@H]1C(=O)N[C@@H](Cc1c[nH]cn1)C(=O)N[C@H](Cc1ccccc1)C(=O)N[C@@H](CCCNC(=N)N)C(=O)N[C@@H](Cc1c[nH]c3ccccc13)C(=O)N2, also called c[c[Cys-Pro-His-D-Phe-Arg-Trp-Cys]-Pro-His-D-Phe-Arg-Trp]) [Chem. 30] = 10.05

pKi for cyclo(CAH[dF][Cit]WCAKKKW) (disulfide 1-7; SMILES C[C@@H]1NC(=O)[C@@H]2CSSC[C@H](NC(=O)[C@H](Cc3c[nH]c4ccccc34)NC(=O)[C@H](CCCNC(N)=O)NC(=O)[C@@H](Cc3ccccc3)NC(=O)[C@H](Cc3c[nH]cn3)NC1=O)C(=O)N[C@@H](C)C(=O)N[C@@H](CCCCN)C(=O)N[C@@H](CCCCN)C(=O)N[C@@H](CCCCN)C(=O)N[C@@H](Cc1c[nH]c3ccccc13)C(=O)N2, also called c[c[Cys-Ala-His-D-Phe-Cit-Trp-Cys]-Ala-Lys-Lys-Lys-Trp]) [Chem. 48] is 9.82

The reported measurements were obtained from patent US20200223889A1.
